- test target: Serine/threonine-protein kinase mTOR (Homo sapiens, UniProt P42345)
- test details: Inhibition of recombinant human N-terminal FLAG-tagged mTOR (1362 to end residues) using Ulight-4E-BP1 as substrate incubated for 30 mins by fluorescence assay
pIC50 overview
Note: pIC50 values are expressed as the negative base-10 logarithm of concentration in M.

> print(dat)
                    structure.smiles.string  recorded.measurement
1  COc1ncc(-c2ccc3c(c2)NC(=O)CO3)cc1NS(=O)(=O)c1ccc(F)cc1                  6.20

Now turn to the next compound.
**Query** pIC50 lookup needed for `Cc1ccc(N2C(=O)COc3ccc(-c4cnc(Cl)c(NS(=O)(=O)c5ccc(F)cc5)c4)cc32)cc1` , thanks.
**Result** 7.71

----------
- test details: Tmax in Sprague-Dawley rat at 10 mg/kg, po measured upto 24 hrs by LC-MS/MS analysis
- Format: ADME, organism-based
- condition info: in vivo
quantity name: Tmax (h)
I only need the number, in h, no unit after it.

**Query** Query: Tmax; subject: `COc1ccc(N2C(=O)COc3ccc(-c4cnc(OC)c(NS(=O)(=O)c5ccc(F)cc5)c4)cc32)cc1`
**Result** 2.67

----------
The compounds listed here are annotated with their pIC50.
- test target: Serine/threonine-protein kinase mTOR (Homo sapiens, UniProt P42345)
- test details: Inhibition of recombinant human N-terminal FLAG-tagged mTOR (1362 to end residues) using Ulight-4E-BP1 as substrate incubated for 30 mins by fluorescence assay
pIC50: −log10 of the molar value.

See these solved cases before continuing.
> print(dat)
                    structure.smiles.string                               test.target  quantity.name  recorded.measurement
1  O=C1COc2ccc(-c3cnc4ccccc4c3)cc2N1c1ccccc1  Serine/threonine-protein kinase mTOR (Homo sapiens, UniProt P42345)          pIC50                < 6.00
2  COc1ncc(-c2ccc3c(c2)N(C2CC2)C(=O)CO3)cc1NS(=O)(=O)c1ccc(F)cc1  Serine/threonine-protein kinase mTOR (Homo sapiens, UniProt P42345)          pIC50                  6.60
3    O=C1COc2ccc(-c3ccc(O)cc3)cc2N1C1CCCCC1  Serine/threonine-protein kinase mTOR (Homo sapiens, UniProt P42345)          pIC50                < 6.00
4  COc1ncc(-c2ccc3c(c2)N(c2ccccc2)C(=O)CO3)cc1NS(=O)(=O)c1ccc(F)cc1  Serine/threonine-protein kinase mTOR (Homo sapiens, UniProt P42345)          pIC50                  7.31
5  CC(C)N1C(=O)COc2ccc(-c3cnc(Cl)c(NS(=O)(=O)c4ccc(F)cc4)c3)cc21  Serine/threonine-protein kinase mTOR (Homo sapiens, UniProt P42345)          pIC50                  8.37

In the following, a different compound is considered.
**Query** Bench note: what pIC50 did `CC(C)N1C(=O)COc2ccc(-c3cnc4ccccc4c3)cc21` show?
**Result** < 6.00

----------
- test target: PI3-kinase p110-delta/p85-alpha (Homo sapiens)
- Sequence (P27986 whole entry, the tested form may be a part): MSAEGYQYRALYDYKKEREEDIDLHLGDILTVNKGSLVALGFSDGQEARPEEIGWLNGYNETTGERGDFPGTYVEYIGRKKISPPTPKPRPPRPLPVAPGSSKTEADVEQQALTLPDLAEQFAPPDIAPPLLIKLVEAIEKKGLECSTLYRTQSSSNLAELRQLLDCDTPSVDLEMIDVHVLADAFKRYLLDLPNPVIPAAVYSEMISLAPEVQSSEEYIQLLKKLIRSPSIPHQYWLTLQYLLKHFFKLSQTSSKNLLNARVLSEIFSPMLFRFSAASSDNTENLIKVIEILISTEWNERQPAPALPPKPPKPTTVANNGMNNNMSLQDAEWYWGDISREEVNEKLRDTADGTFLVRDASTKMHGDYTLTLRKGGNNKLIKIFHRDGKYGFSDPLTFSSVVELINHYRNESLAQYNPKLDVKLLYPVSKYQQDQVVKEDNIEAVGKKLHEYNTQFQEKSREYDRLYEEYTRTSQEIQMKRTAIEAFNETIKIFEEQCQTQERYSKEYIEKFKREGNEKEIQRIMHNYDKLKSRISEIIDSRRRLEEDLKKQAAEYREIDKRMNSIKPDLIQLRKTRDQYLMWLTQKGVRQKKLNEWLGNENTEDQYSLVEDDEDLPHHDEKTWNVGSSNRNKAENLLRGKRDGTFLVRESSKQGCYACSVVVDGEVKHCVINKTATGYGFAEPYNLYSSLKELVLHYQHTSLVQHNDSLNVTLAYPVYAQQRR
- Sequence (O00329 whole entry, the tested form may be a part): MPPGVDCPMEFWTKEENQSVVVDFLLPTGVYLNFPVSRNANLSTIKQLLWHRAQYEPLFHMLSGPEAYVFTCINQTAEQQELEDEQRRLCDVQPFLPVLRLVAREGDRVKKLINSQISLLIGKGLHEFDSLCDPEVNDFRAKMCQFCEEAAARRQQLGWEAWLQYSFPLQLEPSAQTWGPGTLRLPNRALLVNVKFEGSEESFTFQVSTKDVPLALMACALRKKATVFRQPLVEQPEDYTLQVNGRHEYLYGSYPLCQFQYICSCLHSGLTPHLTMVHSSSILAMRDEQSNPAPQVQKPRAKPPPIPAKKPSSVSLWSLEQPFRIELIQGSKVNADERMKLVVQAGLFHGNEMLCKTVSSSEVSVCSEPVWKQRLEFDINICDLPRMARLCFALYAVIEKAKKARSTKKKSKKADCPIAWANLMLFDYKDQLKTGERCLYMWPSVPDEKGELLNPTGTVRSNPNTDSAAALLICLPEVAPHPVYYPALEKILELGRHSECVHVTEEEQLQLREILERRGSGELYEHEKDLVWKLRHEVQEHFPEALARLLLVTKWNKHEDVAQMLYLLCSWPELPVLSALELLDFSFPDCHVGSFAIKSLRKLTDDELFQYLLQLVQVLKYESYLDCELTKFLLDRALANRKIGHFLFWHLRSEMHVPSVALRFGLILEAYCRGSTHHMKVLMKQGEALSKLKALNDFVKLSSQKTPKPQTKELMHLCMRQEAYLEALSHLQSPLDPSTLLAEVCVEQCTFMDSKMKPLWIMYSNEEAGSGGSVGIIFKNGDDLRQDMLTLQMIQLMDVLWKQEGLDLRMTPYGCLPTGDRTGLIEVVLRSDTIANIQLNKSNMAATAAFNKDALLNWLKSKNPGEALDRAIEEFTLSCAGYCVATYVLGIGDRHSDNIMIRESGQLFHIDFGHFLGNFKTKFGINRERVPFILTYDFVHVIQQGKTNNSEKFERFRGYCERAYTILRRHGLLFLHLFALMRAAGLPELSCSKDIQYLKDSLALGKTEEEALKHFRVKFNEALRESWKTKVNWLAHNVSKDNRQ
- test details: Inhibition of recombinant human full length N-terminal GST-tagged PI3Kdelta (1 to 1044 residues)/PIK3R1 (1 to 724 residues) expressed in baculovirus expression system using PIP2 as substrate incubated for 2 hrs by ADP-Glo assay
Reported values of pIC50 for individual entries
Bear in mind: pIC50 is minus log10 of a mol/L concentration; give just that figure.

> print(dat)
                    structure.smiles.string                               test.target  quantity.name  recorded.measurement
1  COc1ncc(-c2ccc3c(c2)NC(=O)CO3)cc1NS(=O)(=O)c1ccc(F)cc1  PI3-kinase p110-delta/p85-alpha (Homo sapiens)          pIC50                  6.52

Kindly review the next compound as well.
**Query** Could you share which pIC50 value was measured for `COc1ncc(-c2ccc3c(c2)N(c2ccccc2)C(=O)CO3)cc1NS(=O)(=O)c1ccc(F)cc1` ?
**Result** 7.10
